system: ROCK-II; assay: Broad selectivity panel, 32P incorporation; format: biochemical; conditions: 1 μM compound, 40 μM ATP

{"Molecule": "Fc1ccc(-c2nc3occn3c2-c2ccnc(NC3CCNCC3)n2)cc1 [CCLXXX]", "Measured target": "ROCK-II", "Percent inhibition ROCK-II": 10}
{"Molecule": "CN1[C@@H]2CC[C@H]1C[C@@H](Nc1nccc(-c3c(-c4ccc(F)cc4)nc4occn34)n1)C2 [CCLXXXI]", "Measured target": "ROCK-II", "Percent inhibition ROCK-II": 9}
{"Molecule": "Fc1ccc(-c2nc3occn3c2-c2ccnc(N[C@H]3CN4CCC3CC4)n2)cc1 [LXXXVII]", "Measured target": "ROCK-II", "Percent inhibition ROCK-II": 8}
{"Molecule": "CS(=O)(=O)N1CCC(Nc2nccc(-c3c(-c4ccc(F)cc4)nc4occn34)n2)CC1 [CCLXXIX]", "Measured target": "ROCK-II", "Percent inhibition ROCK-II": 12}
{"Molecule": "CN(C)CC(C)(C)CNc1nccc(-c2c(-c3ccc(F)cc3)nc3occn23)n1 [CXIX]", "Measured target": "ROCK-II", "Percent inhibition ROCK-II": "−8"}
{"Molecule": "CC(=O)N1CCC(Nc2nccc(-c3c(-c4ccc(F)cc4)nc4occn34)n2)CC1 [CCLXXVIII]", "Measured target": "ROCK-II", "Percent inhibition ROCK-II": 6}
{"Molecule": "Fc1ccc(-c2nc3occn3c2-c2ccnc(N[C@@H]3CN4CCC3CC4)n2)cc1 [LXXI]", "Measured target": "ROCK-II", "Percent inhibition ROCK-II": 10}
